Attribute: inhibition
assay.system: Serine/threonine-protein kinase mTOR (Homo sapiens) (UniProt P42345)
assay.procedure: Inhibition of recombinant human GST-tagged mTOR cytoplasmic domain (1360 to 2549 residues) expressed in baculovirus expression system at 500 nM by Z-LYTE assay relative to control
Answer shape: numeric part, then the unit.

These recorded examples may help you get a feel for the data.
smiles.str	assay.system	inhibition
OC[C@@H](Nc1ncnc2sc(-c3ccc(O)cc3)cc12)c1ccccc1	Serine/threonine-protein kinase mTOR (Homo sapiens) (UniProt P42345)	7%
CN(C)CCn1cc(-c2cccc(O)c2)c2c(N)ncnc21	Serine/threonine-protein kinase mTOR (Homo sapiens) (UniProt P42345)	14%
CCC(=O)Nc1ccc(-c2c[nH]c3ncnc(N[C@H](C)c4ccccc4)c23)cc1	Serine/threonine-protein kinase mTOR (Homo sapiens) (UniProt P42345)	11%

# context switch: different compound, same inhibition
Request: Supply reported inhibition belonging to this compound: OCc1ccc(-c2cc3c(N[C@H](CO)c4ccccc4)ncnc3[nH]2)cc1
Result: 12%
